- System: Aspergillus niger
- assay_details: Antifungal activity against Aspergillus niger at 50 ug/well after 48 hrs by agar well diffusion method
- Type: functional
- run_conditions: read-out: DIZ
zone of inhibition at 50 µg/disc listing for selected compounds.
Report as a plain number; the unit mm is understood.

>  <compound>
O=S(=O)(c1ccc(Cl)cc1)c1c(-c2ccc(Cl)cc2)noc1-c1ccc(-c2onc(-c3ccc(Cl)cc3)c2S(=O)(=O)c2ccc(Cl)cc2)cc1

>  <zone of inhibition at 50 µg/disc (mm)>
30

$$$$
>  <compound>
COc1ccc(C2=NOC(c3ccc(C4ON=C(c5ccc(OC)cc5)C4S(=O)(=O)c4ccc(Cl)cc4)cc3)C2S(=O)(=O)c2ccc(Cl)cc2)cc1 (configuration not stated)

>  <zone of inhibition at 50 µg/disc (mm)>
14

$$$$
>  <compound>
O=S(=O)(c1ccc(Cl)cc1)C1C(c2ccc(Cl)cc2)=NOC1c1ccc(C2ON=C(c3ccc(Cl)cc3)C2S(=O)(=O)c2ccc(Cl)cc2)cc1 (configuration not stated)

>  <zone of inhibition at 50 µg/disc (mm)>
18

$$$$
>  <compound>
O=S(=O)(c1ccccc1)C1C(c2ccc(Cl)cc2)=NN(c2ccccc2)C1c1ccc(C2C(S(=O)(=O)c3ccccc3)C(c3ccc(Cl)cc3)=NN2c2ccccc2)cc1 (configuration not stated)

>  <zone of inhibition at 50 µg/disc (mm)>
13

$$$$
>  <compound>
Cc1ccc(S(=O)(=O)C2C(c3ccc(Cl)cc3)=NN(c3ccccc3)C2c2ccc(C3C(S(=O)(=O)c4ccc(C)cc4)C(c4ccc(Cl)cc4)=NN3c3ccccc3)cc2)cc1 (configuration not stated)

>  <zone of inhibition at 50 µg/disc (mm)>
12

$$$$
>  <compound>
COc1ccc(C2=NN(c3ccccc3)C(c3ccc(C4C(S(=O)(=O)c5ccc(C)cc5)C(c5ccc(OC)cc5)=NN4c4ccccc4)cc3)C2S(=O)(=O)c2ccc(C)cc2)cc1 (configuration not stated)

>  <zone of inhibition at 50 µg/disc (mm)>
8

$$$$
>  <compound>
COc1ccc(C2=NOC(c3ccc(C4ON=C(c5ccc(OC)cc5)C4S(=O)(=O)c4ccc(C)cc4)cc3)C2S(=O)(=O)c2ccc(C)cc2)cc1 (configuration not stated)

>  <zone of inhibition at 50 µg/disc (mm)>
16

$$$$
>  <compound>
COc1ccc(-c2noc(-c3ccc(-c4onc(-c5ccc(OC)cc5)c4S(=O)(=O)c4ccc(C)cc4)cc3)c2S(=O)(=O)c2ccc(C)cc2)cc1

>  <zone of inhibition at 50 µg/disc (mm)>
22

$$$$

Prompt: Request body: readout zone of inhibition at 50 µg/disc, system Aspergillus niger, query O=S(=O)(c1ccc(Cl)cc1)C1C(c2ccc(Cl)cc2)=NN(c2ccccc2)C1c1ccc(C2C(S(=O)(=O)c3ccc(Cl)cc3)C(c3ccc(Cl)cc3)=NN2c2ccccc2)cc1 (configuration not stated) . Return the value.
Response: 13

Prompt: // lookup zone of inhibition at 50 µg/disc | system=Aspergillus niger | key= O=S(=O)(c1ccccc1)c1c(-c2ccc(Cl)cc2)nn(-c2ccccc2)c1-c1ccc(-c2c(S(=O)(=O)c3ccccc3)c(-c3ccc(Cl)cc3)nn2-c2ccccc2)cc1
Response: 24

Prompt: Record lookup: for Aspergillus niger, what zone of inhibition at 50 µg/disc belongs to Cc1ccc(S(=O)(=O)c2c(-c3ccc(Cl)cc3)noc2-c2ccc(-c3onc(-c4ccc(Cl)cc4)c3S(=O)(=O)c3ccc(C)cc3)cc2)cc1 ?
Response: 28

Prompt: Could you share what zone of inhibition at 50 µg/disc was measured for COc1ccc(-c2nn(-c3ccccc3)c(-c3ccc(-c4c(S(=O)(=O)c5ccc(C)cc5)c(-c5ccc(OC)cc5)nn4-c4ccccc4)cc3)c2S(=O)(=O)c2ccc(C)cc2)cc1 , tested on Aspergillus niger?
Response: 19

====

MIC: recorded values
- System: Pseudomonas aeruginosa
- assay_details: Antibacterial activity against Pseudomonas aeruginosa after 24 hrs by broth dilution test
- Format: functional
Kindly answer with a numeric value in µg/mL, unit omitted.

Worked set:
>  <smiles_record>
O=C(N[C@H](CO)[C@H](O)c1ccc([N+](=O)[O-])cc1)C(Cl)Cl

>  <readout_unit>
µg/mL

>  <MIC>
6.25

$$$$
>  <smiles_record>
O=S(=O)(c1ccccc1)c1c(-c2ccc(Cl)cc2)noc1-c1ccc(-c2onc(-c3ccc(Cl)cc3)c2S(=O)(=O)c2ccccc2)cc1

>  <readout_unit>
µg/mL

>  <MIC>
50

$$$$
>  <smiles_record>
O=S(=O)(c1ccc(Cl)cc1)c1c(-c2ccc(Cl)cc2)noc1-c1ccc(-c2onc(-c3ccc(Cl)cc3)c2S(=O)(=O)c2ccc(Cl)cc2)cc1

>  <readout_unit>
µg/mL

>  <MIC>
12.5

$$$$
>  <smiles_record>
O=S(=O)(c1ccc(Cl)cc1)c1c(-c2ccc(Cl)cc2)nn(-c2ccccc2)c1-c1ccc(-c2c(S(=O)(=O)c3ccc(Cl)cc3)c(-c3ccc(Cl)cc3)nn2-c2ccccc2)cc1

>  <readout_unit>
µg/mL

>  <MIC>
50

$$$$

Would you kindly look at the next entry?
Prompt: Which MIC is reported for this compound? Cc1ccc(S(=O)(=O)c2c(-c3ccc(Cl)cc3)noc2-c2ccc(-c3onc(-c4ccc(Cl)cc4)c3S(=O)(=O)c3ccc(C)cc3)cc2)cc1
Response: 50

====

- Test system: Penicillium chrysogenum
- assay_details: Antifungal activity against Penicillium chrysogenum at 100 ug/well after 48 hrs by agar well diffusion method
- Format: functional
- run_conditions: read-out: DIZ
test_readout: zone of inhibition at 100 µg/disc (mm)
# unit: mm | format: bare number

Look over these answered cases.
>  <molecule>
O=S(=O)(c1ccc(Cl)cc1)C1C(c2ccc(Cl)cc2)=NN(c2ccccc2)C1c1ccc(C2C(S(=O)(=O)c3ccc(Cl)cc3)C(c3ccc(Cl)cc3)=NN2c2ccccc2)cc1 (stereo not drawn)

>  <zone of inhibition at 100 µg/disc [mm]>
20

$$$$
>  <molecule>
COc1ccc(-c2noc(-c3ccc(-c4onc(-c5ccc(OC)cc5)c4S(=O)(=O)c4ccc(C)cc4)cc3)c2S(=O)(=O)c2ccc(C)cc2)cc1

>  <zone of inhibition at 100 µg/disc [mm]>
27

$$$$

Prompt: Would you mind telling me what zone of inhibition at 100 µg/disc value was observed for COc1ccc(C2=NOC(c3ccc(C4ON=C(c5ccc(OC)cc5)C4S(=O)(=O)c4ccccc4)cc3)C2S(=O)(=O)c2ccccc2)cc1 (stereo not drawn) ?
Response: 17

====

- Tested on: Staphylococcus aureus
- assay_details: Antibacterial activity against Staphylococcus aureus at 50 ug/well after 24 hrs by agar well diffusion method
- Assay type: functional
- run_conditions: read-out: DIZ
Please use 1.0 whenever zone of inhibition at 50 µg/disc is not below 20 mm, and 0.0 whenever it is.

Completed entries (count: 4):
>  <compound>
O=S(=O)(c1ccccc1)C1C(c2ccc(Cl)cc2)=NN(c2ccccc2)C1c1ccc(C2C(S(=O)(=O)c3ccccc3)C(c3ccc(Cl)cc3)=NN2c2ccccc2)cc1 (stereo not given)

>  <discrete_label>
0.0

$$$$
>  <compound>
COc1ccc(-c2noc(-c3ccc(-c4onc(-c5ccc(OC)cc5)c4S(=O)(=O)c4ccc(Cl)cc4)cc3)c2S(=O)(=O)c2ccc(Cl)cc2)cc1

>  <discrete_label>
1.0

$$$$
>  <compound>
COc1ccc(-c2nn(-c3ccccc3)c(-c3ccc(-c4c(S(=O)(=O)c5ccc(Cl)cc5)c(-c5ccc(OC)cc5)nn4-c4ccccc4)cc3)c2S(=O)(=O)c2ccc(Cl)cc2)cc1

>  <discrete_label>
0.0

$$$$
>  <compound>
COc1ccc(-c2nn(-c3ccccc3)c(-c3ccc(-c4c(S(=O)(=O)c5ccc(C)cc5)c(-c5ccc(OC)cc5)nn4-c4ccccc4)cc3)c2S(=O)(=O)c2ccc(C)cc2)cc1

>  <discrete_label>
0.0

$$$$

Prompt: Item O=S(=O)(c1ccc(Cl)cc1)c1c(-c2ccc(Cl)cc2)nn(-c2ccccc2)c1-c1ccc(-c2c(S(=O)(=O)c3ccc(Cl)cc3)c(-c3ccc(Cl)cc3)nn2-c2ccccc2)cc1 with zone of inhibition at 50 µg/disc of 20 mm or above?
Response: 1.0

====

- Tested on: Pseudomonas aeruginosa
- assay_details: Antibacterial activity against Pseudomonas aeruginosa at 50 ug/well after 24 hrs by agar well diffusion method
- Assay type: functional
- run_conditions: read-out: DIZ
test_readout: zone of inhibition at 50 µg/disc (mm)
# output: bare number, implied unit mm

Illustrative cases are given below, each with its answer.
>  <compound>
O=S(=O)(c1ccc(Cl)cc1)C1C(c2ccc(Cl)cc2)=NOC1c1ccc(C2ON=C(c3ccc(Cl)cc3)C2S(=O)(=O)c2ccc(Cl)cc2)cc1 (stereo unspecified)

>  <test_readout>
zone of inhibition at 50 µg/disc

>  <number>
11

$$$$
>  <compound>
COc1ccc(-c2nn(-c3ccccc3)c(-c3ccc(-c4c(S(=O)(=O)c5ccc(C)cc5)c(-c5ccc(OC)cc5)nn4-c4ccccc4)cc3)c2S(=O)(=O)c2ccc(C)cc2)cc1

>  <test_readout>
zone of inhibition at 50 µg/disc

>  <number>
11

$$$$
>  <compound>
Cc1ccc(S(=O)(=O)c2c(-c3ccc(Cl)cc3)noc2-c2ccc(-c3onc(-c4ccc(Cl)cc4)c3S(=O)(=O)c3ccc(C)cc3)cc2)cc1

>  <test_readout>
zone of inhibition at 50 µg/disc

>  <number>
22

$$$$
>  <compound>
O=S(=O)(c1ccc(Cl)cc1)c1c(-c2ccc(Cl)cc2)nn(-c2ccccc2)c1-c1ccc(-c2c(S(=O)(=O)c3ccc(Cl)cc3)c(-c3ccc(Cl)cc3)nn2-c2ccccc2)cc1

>  <test_readout>
zone of inhibition at 50 µg/disc

>  <number>
20

$$$$
>  <compound>
O=C(N[C@H](CO)[C@H](O)c1ccc([N+](=O)[O-])cc1)C(Cl)Cl [CHLORAMPHENICOL]

>  <test_readout>
zone of inhibition at 50 µg/disc

>  <number>
27

$$$$

Now for the compound whose zone of inhibition at 50 µg/disc we want.
Prompt: // query zone of inhibition at 50 µg/disc value for entry O=S(=O)(c1ccccc1)C1C(c2ccc(Cl)cc2)=NOC1c1ccc(C2ON=C(c3ccc(Cl)cc3)C2S(=O)(=O)c2ccccc2)cc1 (stereo unspecified)
Response: 10
